# Test Summary: chemical genetic growth profiling, strain panel (AID 1159580);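 further: tested at 20 µM; growth read once vehicle control cultures reached saturation at 30 °C; lower values mean less growth of the strain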
# Experimental Conditions: S. cerevisiae deletion strains, growth OD, locus YGL253W, strain hxk2
Among all 5,500 compounds or so, about 2,000 (36%) were called active. Inconclusive results (about 18%) are left out. No stated cut-off is given here; in the data, active means normalized growth mostly below about 0.91 (no sharp cut-off); inconclusive means no clear call, values can overlap the other calls; inactive means mostly above about 0.92. The list shows a part of the results.
Outcome field: choose from active, inactive

See these solved cases before continuing.
INSERT INTO assay_data (compound, cat) VALUES
  ('CCN(CC)Cc1ccc(Nc2ccnc3cc(Cl)ccc23)cc1O', 'inactive'),
  ('CCN1CCCC(OC(=O)C(c2ccccc2)c2ccccc2)C1 (stereo not given)', 'inactive'),
  ('C=CCCCCCCCCCCCc1ccco1', 'active');

stdin: Each compound tested received a call. Report the one for CC(=O)O[C@H]1C[C@@H](OC(C)=O)C(C)(C)C2CC(=O)[C@]3(C)C(CC[C@@]4(C)[C@H](C(=O)O)OC(=O)C5OC543)[C@]21C (stereo not given in full) .
stdout: inactive

stdin: Each compound tested received a call. Report the one for COC(=O)[C@@H]1OC(=O)C2OC23[C@@]1(C)CCC1[C@]2(C)C(C[C@H](O)[C@]13C)C(C)(C)[C@H](OC(C)=O)C[C@@H]2OC(C)=O (stereo not given in full) .
stdout: inactive

stdin: Each compound tested received a call. Report the one for COC(=O)C[C@H]1C2(C)CC34OC5(C)O[C@@]6([C@H](OC(C)=O)C(OC(C)=O)[C@]7(C)C(/C(=C(/O)C(C)C)C(=O)O[C@H]7c7ccoc7)[C@@]6(O5)[C@H](OC(C)=O)[C@@]3(O)C2OC(=O)C(C)C)[C@]14C (stereo not given in full) .
stdout: inactive
